Overview of recorded Result for incubation with human IgG-Fc (immunoglobulin binding detection) for various substances
# Tested on: human IgG-Fc
# Protocol: Cellulose-immobilized 13-mer peptide variants incubated with human IgG-Fc, anti-human IgG-AP detection
# Assay type: binding
# Set-up: key: No binding of immunoglobulin for the defined peptide variant, detection negative: 0; Binding of immunoglobulin for the defined peptide variant, detection positive: +
# Test conditions: IgG-Fc 1 μg/ml in blocking buffer, 3 h room temperature
Bridge positions count the residues as written; N and C are the ends. Square brackets hold non-standard residues; d marks the D form. Ends that are not written are not given here. cellulose = not defined here; βAla = NCCC(=O)O
# answer = number (no unit)

# annotated cases, reported Result for incubation with human IgG-Fc (immunoglobulin binding detection) shown
- Substance: "07K: cellulose-bound 13-mer variant DCAWHLKELVWCT-(βA)(βA) (DCAWHLKELVWCT-{βAla-βAla-cellulose}; disulfide 2-12 (inferred); not fully specified (N-terminus); printed as DCAWHLKELVWCT-(βA)(βA); reading uncertain)"
  Observed result: 0
- Substance: "10M: cellulose-bound 13-mer variant DCAWHLGELMWCT-(βA)(βA) (DCAWHLGELMWCT-{βAla-βAla-cellulose}; disulfide 2-12 (inferred); reading uncertain; also: printed as DCAWHLGELMWCT-(βA)(βA))"
  Observed result: 0
- Substance: "02G: cellulose-bound 13-mer variant DGAWHLGELVWCT-(βA)(βA) (DGAWHLGELVWCT[βAla][βAla]; not fully specified; printed as DGAWHLGELVWCT-(βA)(βA); also: cellulose-bound)"
  Observed result: 0

Now examine the next entry.
GET /values?readout=Result for incubation with human IgG-Fc (immunoglobulin binding detection)&item= 09D: cellulose-bound 13-mer variant DCAWHLGEDVWCT-(βA)(βA) (DCAWHLGEDVWCT-{βAla-βAla-cellulose}; disulfide 2-12 (inferred); reading uncertain; also: printed as DCAWHLGEDVWCT-(βA)(βA))
0
